Experiment: NCI Yeast Anticancer Drug Screen. Data for the wt2 strain (AID 169);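 also: 0% = growth of vehicle-treated yeast cultures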
Conditions: S. cerevisiae wt2 strain growth inhibition; at 3.7 µM; stronger effect = higher value
About 79,000 compounds went through this panel and 15% of them were active in at least one assay; those are over-represented in the sample as a whole.
PARAMETER MEASURED: growth inhibition (%)

>  <COMPOUND>
COc1cc(/C=C2\NC(=O)N(/C=C3\C(=O)Oc4ccccc4C3=O)C2=O)ccc1O

>  <PARAMETER MEASURED>
growth inhibition

>  <EXPERIMENTAL VALUE>
0

$$$$
>  <COMPOUND>
C=C(Cl)COC(=O)Nc1cccc(Cl)c1

>  <PARAMETER MEASURED>
growth inhibition

>  <EXPERIMENTAL VALUE>
-1

$$$$
>  <COMPOUND>
O=C(NNc1ccccc1)C(O)C(O)C(O)C(O)C(O)CO (stereo unspecified)

>  <PARAMETER MEASURED>
growth inhibition

>  <EXPERIMENTAL VALUE>
12

$$$$
>  <COMPOUND>
CN(CCN(C)Cc1ccccc1)Cc1ccccc1

>  <PARAMETER MEASURED>
growth inhibition

>  <EXPERIMENTAL VALUE>
-9

$$$$
>  <COMPOUND>
COC(=O)C1(C)CCc2c(ccc3ccccc23)C1=O (stereo unspecified)

>  <PARAMETER MEASURED>
growth inhibition

>  <EXPERIMENTAL VALUE>
-2

$$$$
>  <COMPOUND>
O=[N+]([O-])/C=C/c1cc(Cl)c(/C=C/[N+](=O)[O-])cc1Cl

>  <PARAMETER MEASURED>
growth inhibition

>  <EXPERIMENTAL VALUE>
34

$$$$
>  <COMPOUND>
COC(=O)NC1C(C)OC(OC2C/C=C(/C)C3C=CC4C(OC5CC(OC6CC(O)C(OC7CC(O)C(OC)C(C)O7)C(C)O6)C(O)C(C)O5)C(C)CC(C)C4C3(C)/C(O)=C3\C(=O)OC4(CC(C)C(CO)=CC4/C=C\2C)C3=O)CC1(C)[N+](=O)[O-] (stereo unspecified)

>  <PARAMETER MEASURED>
growth inhibition

>  <EXPERIMENTAL VALUE>
-37

$$$$
>  <COMPOUND>
CC(C)OC(=O)Nc1ccc2nc(-c3cscn3)[nH]c2c1

>  <PARAMETER MEASURED>
growth inhibition

>  <EXPERIMENTAL VALUE>
-2

$$$$
>  <COMPOUND>
CCCCCCC(O)CNCc1ccnc2ccc(OC)cc12 (stereo unspecified)

>  <PARAMETER MEASURED>
growth inhibition

>  <EXPERIMENTAL VALUE>
8

$$$$
>  <COMPOUND>
COc1cc(C2c3cc4c(cc3OC(OC(C)=O)C2C)OCO4)cc(OC)c1OC (stereo unspecified)

>  <PARAMETER MEASURED>
growth inhibition

>  <EXPERIMENTAL VALUE>
-5

$$$$
>  <COMPOUND>
CC1SC2(C(=O)Nc3ccc(Cl)cc32)N(c2ccc(Cl)cc2)C1=O (stereo unspecified)

>  <PARAMETER MEASURED>
growth inhibition

>  <EXPERIMENTAL VALUE>
-5

$$$$
>  <COMPOUND>
Cc1nc(-c2cc3cc([N+](=O)[O-])ccc3oc2=O)cs1

>  <PARAMETER MEASURED>
growth inhibition

>  <EXPERIMENTAL VALUE>
-24

$$$$
>  <COMPOUND>
CC(C)c1ccc(NC(=S)NC(=O)c2ccccc2)cc1

>  <PARAMETER MEASURED>
growth inhibition

>  <EXPERIMENTAL VALUE>
-26

$$$$
>  <COMPOUND>
c1ccc(-c2cnc3ccccc3c2)cc1

>  <PARAMETER MEASURED>
growth inhibition

>  <EXPERIMENTAL VALUE>
-3

$$$$
>  <COMPOUND>
CCOC1(c2cccc([N+](=O)[O-])c2)c2ccccc2Oc2ccccc21

>  <PARAMETER MEASURED>
growth inhibition

>  <EXPERIMENTAL VALUE>
-1

$$$$
>  <COMPOUND>
COc1ccc(C(NCCNC(c2ccc(OC)c(OC)c2)c2cc3c(cc2O)OCO3)c2cc3c(cc2O)OCO3)cc1OC (stereo unspecified)

>  <PARAMETER MEASURED>
growth inhibition

>  <EXPERIMENTAL VALUE>
-2

$$$$
>  <COMPOUND>
COc1ccc(/C=C/c2sc3ccccc3[n+]2CCCCI)cc1OC

>  <PARAMETER MEASURED>
growth inhibition

>  <EXPERIMENTAL VALUE>
-3

$$$$
>  <COMPOUND>
CCn1c(O)c(C=Nc2ccccc2)s/c1=N/Nc1nc(-c2ccccc2)cs1

>  <PARAMETER MEASURED>
growth inhibition

>  <EXPERIMENTAL VALUE>
-2

$$$$
>  <COMPOUND>
N#CC1=C(N)N(/N=C/c2ccccc2)C(c2ccccc2)C1(C#N)C#N (stereo unspecified)

>  <PARAMETER MEASURED>
growth inhibition

>  <EXPERIMENTAL VALUE>
51

$$$$
>  <COMPOUND>
CCOC(=O)[C@H]1Nc2ccc(OC)cc2C2c3ccccc3CC21 (stereo partly specified)

>  <PARAMETER MEASURED>
growth inhibition

>  <EXPERIMENTAL VALUE>
-14

$$$$
>  <COMPOUND>
Nc1ccc2c(c1)C(=O)c1ccc(F)cc1-2

>  <PARAMETER MEASURED>
growth inhibition

>  <EXPERIMENTAL VALUE>
3

$$$$
